System: HL-60(TB) leukemia
assay remarks: NCI-60 one-dose screen, 48 h (100 = growth as untreated, 0 = no growth, -100 = all killed)
experimental parameters: 10 µM unless noted
About 83,000 compounds went through this panel and 20% of them were active in at least one assay; those are over-represented in the sample as a whole. Active and inactive are the calls of the source. How the source made its calls: active means growth percent below 10; inactive means the rest.
Quick reference for growth among some compounds
observed property: growth

1. CNC(=O)Oc1ccc2c(c1)OCO2
94.3% (inactive)
2. O=[N+]([O-])c1cc([N+](=O)[O-])c(Nn2c3ccccc3c3ccccc32)c([N+](=O)[O-])c1
-30.3% (active)
3. CC(=O)Oc1ccccc1C(=O)NCCC[Se]C#N
5.1% (active)
4. CC(C)=CCC[C@H](C(=O)O)[C@@H]1CC[C@]2(C)C3=C(CC[C@@]12C)[C@@]1(C)CC[C@H](O)C(C)(C)[C@@H]1CC3
85.1% (inactive)
5. C[C@]12CCc3sc(-c4ccccc4O)nc3C1=CC[C@@H]1[C@@H]2CC[C@]2(C)C(=O)CC[C@@H]12
103% (inactive)
6. O=P(Oc1ccc(Cl)cc1)(N1CC1)N1CC1
96% (inactive)
7. CC(=O)[O][Hg][c]1c(N)c(C)cc(C)c1F
-12.7% (active)
8. Nc1nc([Se])c2ncn(C3OC(CO)C(O)C3O)c2n1 (centres undefined)
41.7% (inactive)
9. Nc1ccc(OCCNS(=O)(=O)c2cccc(S(=O)(=O)F)c2)c(Cl)c1
98.1% (inactive)
10. O=C(Nc1ccc([As]=[As]c2ccc(NC(=O)c3ccccc3)cc2)cc1)c1ccccc1 (centres undefined)
-53.9% (active)
11. CN1CCC(O)(c2ccc(F)cc2)C(C(=O)c2ccc(F)cc2)C1 (centres undefined)
134% (inactive)
12. Fc1cccc(NCOOC2(OOCNc3cccc(F)c3)CCCCC2)c1
88.3% (inactive)
13. CCn1cnc2c(Nc3cccc(Cl)c3)nc(N[C@@H]3CCCC[C@@H]3N)nc21
-51.6% (active)
14. COC(=O)C1OC(Oc2ccc(N(CCCl)CCCl)cc2)C(OC(C)=O)C(OC(C)=O)C1OC(C)=O (centres undefined)
40.1% (inactive)
15. CCCCCSC1C2C(=O)C(Br)=CC13CCNc1c(O)c4c5c(c13)=[N+]2CCC=5C=N4 (centres undefined)
-40.8% (active)
16. COC(=O)[C@@H](C)C[C@H](Cc1ccc(F)cc1)NC(=O)c1csc([C@@H](C[C@H](C(C)C)N(C)C(=O)[C@@H](NC(=O)[C@H]2CCCCN2C)C2CC2)OC(C)=O)n1
-35.1% (active)
17. Nc1ccc2c(c1)Cc1cc(Br)ccc1-2
47.8% (inactive)
18. O=C(N/N=C\c1ccc(N(CCCl)CCCl)cc1Cl)c1cccnc1
91.8% (inactive)
19. COC(=O)[C@@H](C)C[C@H](Cc1ccccc1)NC(=O)c1csc([C@@H](C[C@H](C(C)C)N(C)C(=O)[C@@H](NC(=O)[C@H]2CCCCN2C)C(C)C)OC(C)=O)n1
-47.8% (active)

----------
Tested on: IGROV1 ovarian
assay remarks: NCI-60 one-dose screen, 48 h (100 = growth as untreated, 0 = no growth, -100 = all killed)
experimental parameters: 10 µM unless noted
Method: Growth inhibition of the IGROV1 human tumor cell line is measured as a screen for anti-cancer activity. Cells are grown in 96 well plates and exposed to the test compound for 48 hours. Compounds are tested at a single concentration, which is 10^-5 M for most compounds. The reported endpoint is percent growth (GI% or GIPRCNT), where numbers from 0 - 100% represent growth inhibition, and numbers from -100% - 0 represent cell death. For example, a value of 40 represents 60% growth inhibition. […]
Compounds without any hit were thinned out: in the full panel of roughly 83,000, 20% have a hit.
Definition: the class of an entry is the range in bin 1 = under 20%, bin 2 = from 20% up to 60%, bin 3 = 60% and over that contains its growth.

1) CC1=C(CCCNS(C)(=O)=O)C2=C(C)C3(CC3)[C@@](C)(O)C(=O)C2=C1
bin 1
2) [Au+].[N-]=C=O.c1ccc(CN2[CH-]N(Cc3ccccc3)C(c3ccccc3)=C2c2ccccc2)cc1
bin 3
3) COC(=O)[C@@]1(C)CC[C@]2(C)CC[C@]3(C)C4=CC(=O)c5c(cc(O)c(O)c5C)[C@]4(C)CC[C@@]3(C)[C@@H]2C1
bin 2
4) Brc1ccc2c(c1)c(-c1nc(-c3c[nH]c4ncccc34)cs1)cn2CCN1CCCCC1
bin 2
5) C[C@@]12CC[C@@H](O)C[C@@H]1CC[C@H]1[C@H]2CC[C@@]2(C)[C@H](c3ccc(=O)oc3)CC[C@@]12O
bin 1
6) COc1cccc(C=NC(Cc2cnc[nH]2)C(=O)O)c1O (centres undefined)
bin 3
7) CCCOC(=O)N[C@H]1CCc2c(Br)c(OC)c(OC)c(OC)c2-c2ccc(SC)c(=O)cc21
bin 1
8) C=C1C[C@](OC)([C@H](O)C(=O)N[C@@H](OC)[C@@H]2C[C@@H](O)C(C)(C)[C@@H](C[C@@H](COC)OC)O2)O[C@H](C)[C@@H]1C
bin 1
9) O=[N+]([O-])c1cc([N+](=O)[O-])c(Nn2c3ccccc3c3ccccc32)c([N+](=O)[O-])c1
bin 2
10) C=CC12CCN(CC1)C(C(O)c1ccnc3ccc(OC)cc13)C2 (centres undefined)
bin 3
11) OCCCCCNC1CCCCC1
bin 3
12) COC1OC(CO)C(O)C(O)[CH]1[Hg][O]C(C)=O (centres undefined)
bin 3
13) O=C(N/N=C/c1ccc(N(CCCl)CCCl)cc1)c1cccc2ccccc12
bin 3
14) ClCCN(CCCl)c1ccc(-n2cnc3c(Cl)ncnc32)cc1
bin 1
15) CC1CN1CCCCN1CC1C (centres undefined)
bin 3
16) O=C(Nc1ccc(Cl)cc1)Nc1nccs1
bin 2
17) CCC1CN1CCCCN1CC1CC (centres undefined)
bin 3
18) CC(C)(NC(=O)O[C@@H]1CN2CCC1CC2)c1csc(-c2ccc(F)cc2)n1
bin 3
19) CCOC(=O)[C@@H](C)C[C@H](Cc1ccccc1)NC(=O)c1csc([C@@H](C[C@H](C(C)C)N(C)C(=O)[C@@H](NC(=O)[C@H]2CCCCN2C)C(C)(C)C)OC(C)=O)n1
bin 1
20) CC[C@H](C)[C@@H]1OC(=O)C(C)(C)[C@H](O)[C@H](Cc2ccccc2)OC(=O)[C@H](C(C)C)OC(=O)[C@@H](NC(=O)c2cccc(NC=O)c2O)[C@@H](C)OC1=O
bin 2
21) C[C@]12CC[C@@H]3c4ccc(Oc5nc(N6CC6)nc(N6CC6)n5)cc4CC[C@H]3[C@@H]1CCC2=O
bin 2
22) O=C1C2C(C(=O)[N]1[Hg][c]1cccs1)C1(Cl)C(Cl)=C(Cl)C2(Cl)C1(Cl)Cl (centres undefined)
bin 1
23) CC(C)(C)C(=O)OCOP(=O)(NCc1ccccc1)C1CCCN(O)C1=O (centres undefined)
bin 1
24) CCCC[C@H](NC(=O)[C@H]1CCCN1C)C(=O)N(C)[C@H](C[C@@H](OC(C)=O)c1nc(C(=O)N[C@@H](Cc2ccccc2)C[C@H](C)C(=O)OCC)cs1)C(C)C
bin 2
25) O=C(CCCC1CCCCC1)OCC(Cl)(Cl)Cl
bin 3
26) CC[C@H](C)[C@H](NC(=O)[C@H]1CCCCN1C)C(=O)N(C)[C@H](C[C@@H](OC(C)=O)c1nc(C(=O)NC23CC(C(=O)OC)(C2)C3)cs1)C(C)C
bin 2
27) COC(=O)[C@@H](C)C[C@H](Cc1ccccc1)NC(=O)c1nc([C@@H](C[C@H](C(C)C)N(C)C(=O)[C@@H](NC(=O)[C@H]2CCCN2C)C(C)C)OC(C)=O)sc1C
bin 2
28) CC1=C(O)[C@@](C)(CCCCC[C@H](C)CCCCc2ccc(O)cc2)OOC1=O
bin 1
29) COc1ccc(/C=C\c2cc(OC)c(OC)c(OC)c2)cc1OCC(=O)Nc1nc2ccc(OC(F)(F)F)cc2s1
bin 2
30) C[C@@]12CC=C3c4nc(Nc5cccc(O)c5)sc4CC[C@]3(C)[C@H]1CC[C@]1(C)C(=O)CC[C@@H]21
bin 1
31) C/C(Cc1ccc(Cl)cc1)=C(\c1ccc(OCCN2CCOCC2)cc1)c1ccc(OC(=O)Cc2ccccc2)cc1
bin 3
32) CC(=O)O[C@H](C[C@H](C(C)C)N(C)C(=O)[C@@H](NC(=O)[C@H]1CCCCN1C)C(C)(C)C)c1nc(C(=O)N[C@@H](Cc2ccccc2)C[C@H](C)C(=O)O)cs1
bin 1
33) O=C1NC(=O)C(=Cc2ccc(OCCCCC3CCCCC3)c(Cl)c2)C(=O)N1
bin 3

----------
System: NCI-H226 lung
assay remarks: NCI-60 one-dose screen, 48 h (100 = growth as untreated, 0 = no growth, -100 = all killed)
experimental parameters: 10 µM unless noted
The panel holds about 83,000 compounds, 20% with a hit somewhere; the sample as a whole holds those more often.
Quick reference for growth among some molecules
observed property: growth (%)

1. O=[N+]([O-])c1cc([N+](=O)[O-])c(Cl)cc1Cl
-59
2. O=P(N1CC1)(N1CC1)N1CCc2ccccc21
105
3. Nc1c(F)cc(-c2nc3cc(F)ccc3[se]2)cc1F
-11.3
4. COC(=O)CCC1=C(C)c2cc3[n-]c(cc4nc(cc5[n-]c(cc1n2)c(CCC(=O)OC)c5C)C=C4C)cc3C.[Cd+2]
19.8
5. CC[C@H](C)[C@H](NC(=O)[C@H]1CCCCN1C)C(=O)N(C)[C@H](C[C@@H](O)c1nc(C(=O)N[C@@H](Cc2ccccc2)C[C@H](C)C(=O)O)cs1)C(C)C
99
6. O=C1CCC2(O)[C@@H]3Cc4ccc(O)c5c4[C@]2(CCN3Cc2ccoc2)C1O5 (stereo not given in full)
89.4
7. O=C1NC(=O)C(=Cc2ccc(OCCCCC3CCCCC3)c(Cl)c2)C(=O)N1
102
8. Nc1ccc(Cl)cc1
92.1
9. COC(=O)C1CCC(NC(=O)c2csc([C@@H](C[C@H](C(C)C)N(C)C(=O)[C@@H](NC(=O)[C@H]3CCCCN3C)C(C)C)OC(C)=O)n2)CC1 (stereo not given in full)
17
10. Oc1c(O)c(Cl)c(Cl)c(Cl)c1Cl
36.8
11. COc1ccc2c(c1)c(-c1nc(-c3c[nH]c4ncccc34)cs1)cn2CCN1CCOCC1
49.7
12. O=P1(NCCCl)OCCCN1CCCl (stereo not given)
109
13. C=CCCCCCCCCC(=O)[O-].C=CCCCCCCCCC(=O)[O-].[Zn+2]
115
14. COC1OC(CO)C(O)C(O)[CH]1[Hg][O]C(C)=O (stereo not given)
100
15. O=C1C(=Cc2cn(Cc3ccccc3)c3ccccc23)C(=O)N(Cc2ccccc2)C(=O)N1Cc1ccccc1
-49.4
16. O=c1[nH]cc(N(CCCl)CCCl)c(=O)[nH]1
76.5
17. CCn1nccc1NC(=O)C(=O)c1cn(Cc2ccc(F)cc2)c2cccc(OC)c12
75.1
18. COc1ccc(/C(C)=C(\c2ccc(OCCN3CCOCC3)cc2)c2ccc(OC(=O)Cc3ccccc3)cc2)cc1
110
19. CN1C(=O)C(=Cc2cn(CCCCCCn3c4ccccc4c(=O)c4ccccc43)c3ccccc23)C(=O)N(C)C1=O
-20.8
20. CCCC[C@H](NC(=O)[C@H]1CCCN1C)C(=O)N(C)[C@H](C[C@@H](OC(C)=O)c1nc(C(=O)N[C@@H](Cc2ccccc2)C[C@H](C)C(=O)OCC)cs1)C(C)C
37.2
